system: DNA topoisomerase 2-alpha (Homo sapiens)
Sequence (P11388 whole entry): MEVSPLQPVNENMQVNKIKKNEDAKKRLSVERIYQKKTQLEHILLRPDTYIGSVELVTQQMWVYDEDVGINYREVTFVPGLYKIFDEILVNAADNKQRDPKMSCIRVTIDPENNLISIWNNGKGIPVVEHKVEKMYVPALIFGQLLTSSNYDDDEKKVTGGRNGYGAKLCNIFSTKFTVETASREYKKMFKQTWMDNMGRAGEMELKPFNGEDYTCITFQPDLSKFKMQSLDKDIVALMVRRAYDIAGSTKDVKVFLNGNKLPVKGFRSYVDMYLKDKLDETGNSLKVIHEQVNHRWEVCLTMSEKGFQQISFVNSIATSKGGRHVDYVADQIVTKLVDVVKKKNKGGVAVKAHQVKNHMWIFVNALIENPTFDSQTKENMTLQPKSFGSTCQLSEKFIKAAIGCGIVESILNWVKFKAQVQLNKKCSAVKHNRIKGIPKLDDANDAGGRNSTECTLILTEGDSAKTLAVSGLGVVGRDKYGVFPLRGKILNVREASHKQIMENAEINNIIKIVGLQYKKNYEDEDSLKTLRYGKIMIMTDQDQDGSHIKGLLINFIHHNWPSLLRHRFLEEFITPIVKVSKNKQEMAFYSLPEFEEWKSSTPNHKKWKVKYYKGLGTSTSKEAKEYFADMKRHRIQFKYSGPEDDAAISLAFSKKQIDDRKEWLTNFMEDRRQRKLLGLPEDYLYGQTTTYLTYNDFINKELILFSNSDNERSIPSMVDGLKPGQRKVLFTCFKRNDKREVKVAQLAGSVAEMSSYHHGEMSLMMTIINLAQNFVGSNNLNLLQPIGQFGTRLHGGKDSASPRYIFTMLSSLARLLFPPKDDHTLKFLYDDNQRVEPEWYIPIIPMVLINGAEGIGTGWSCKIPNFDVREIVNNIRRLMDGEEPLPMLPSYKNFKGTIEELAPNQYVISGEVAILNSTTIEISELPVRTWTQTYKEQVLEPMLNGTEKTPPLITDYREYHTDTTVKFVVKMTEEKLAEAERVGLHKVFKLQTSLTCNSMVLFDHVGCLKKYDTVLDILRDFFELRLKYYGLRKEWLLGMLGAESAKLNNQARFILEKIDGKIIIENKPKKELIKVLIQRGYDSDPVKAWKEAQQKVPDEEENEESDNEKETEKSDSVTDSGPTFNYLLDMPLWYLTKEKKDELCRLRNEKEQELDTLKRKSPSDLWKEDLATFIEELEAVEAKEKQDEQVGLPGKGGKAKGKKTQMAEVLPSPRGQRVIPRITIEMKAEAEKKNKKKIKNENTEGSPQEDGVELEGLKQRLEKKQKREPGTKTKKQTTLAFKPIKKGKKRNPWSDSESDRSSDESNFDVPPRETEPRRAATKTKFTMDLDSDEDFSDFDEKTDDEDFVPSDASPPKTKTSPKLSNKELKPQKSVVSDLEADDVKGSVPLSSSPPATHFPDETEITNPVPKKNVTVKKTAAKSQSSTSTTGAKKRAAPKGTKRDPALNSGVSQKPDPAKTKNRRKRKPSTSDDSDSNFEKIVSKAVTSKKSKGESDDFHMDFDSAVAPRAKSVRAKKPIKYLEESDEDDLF
protocolDetails: Inhibition of human topoisomerase-2 alpha at 100 uM using supercoiled pBR322 DNA as substrate after 30 mins by agarose gel electrophoresis method relative to control
reportedMetric: inhibition (%)
Report as a plain number; the unit % is understood.

Please report the recorded inhibition for CCCCNCC(O)COc1cc(OCc2ccccc2)c2c(=O)c3ccccc3oc2c1 (stereo not given) . 65.4

Please report the recorded inhibition for O=c1c2ccccc2oc2cc(OCC3CO3)cc(OCc3ccccc3)c12 (stereo not given) . 0

Please report the recorded inhibition for COc1cccc2c(=O)c3c(OCCc4cccc(Cl)c4)cc(OCC4CO4)cc3oc12 (stereo not given) . 0

Please report the recorded inhibition for CCCCNCC(O)COc1cc(OCCCC)c2c(=O)c3cccc(OC)c3oc2c1 (stereo not given) . 24.2

Please report the recorded inhibition for CCOc1cc(OCC2CO2)cc2oc3c(OC)cccc3c(=O)c12 (stereo not given) . 2.5

Please report the recorded inhibition for CCCCNCC(O)COc1cc(OCc2cccc(C(F)(F)F)c2)c2c(=O)c3cccc(OC)c3oc2c1 (stereo not given) . 58.1

Please report the recorded inhibition for COc1cccc2c(=O)c3c(OCc4cccc(Cl)c4)cc(OCC4CO4)cc3oc12 (stereo not given) . 1.7

Please report the recorded inhibition for CCCCNCC(O)COc1cc(OCCc2ccc(Cl)cc2)c2c(=O)c3ccccc3oc2c1 (stereo not given) . 94.4

Please report the recorded inhibition for CCCCNCC(O)COc1cc(OCc2ccc(OC)cc2)c2c(=O)c3cccc(OC)c3oc2c1 (stereo not given) . 44.8

Please report the recorded inhibition for CCCCCOc1cc(OCC(O)CNCCCC)cc2oc3c(OC)cccc3c(=O)c12 (stereo not given) . 36.3

====

protocolDetails: Cytotoxicity against human HCT15 cells assessed as reduction in cell growth after 72 hrs by CCK8 assay
Type: functional, cell-based
conditionSet: HCT-15, 72 h
Classify: y when IC50 is strictly less than 2000 nM; n when IC50 is not.

Here's an entry: CCCCCOc1cc(OCC(O)CNCCCC)cc2oc3c(OC)cccc3c(=O)c12 (centres undefined) . Is its IC50 below 2000 nM? y

Here's an entry: COc1cc([C@@H]2c3cc4c(cc3[C@@H](O[C@@H]3O[C@@H]5CO[C@@H](C)O[C@H]5[C@H](O)[C@H]3O)[C@H]3COC(=O)[C@H]23)OCO4)cc(OC)c1O [ETOPOSIDE] . Is its IC50 below 2000 nM? y

Here's an entry: CCCCNCC(O)COc1cc(OCc2cccc(Cl)c2)c2c(=O)c3ccccc3oc2c1 (centres undefined) . Is its IC50 below 2000 nM? n

Here's an entry: CCCCNCC(O)COc1cc(OCc2ccc(OC)cc2)c2c(=O)c3cccc(OC)c3oc2c1 (centres undefined) . Is its IC50 below 2000 nM? n

Here's an entry: O=c1c2ccccc2oc2cc(OCC3CO3)cc(OCc3cccc(C(F)(F)F)c3)c12 (centres undefined) . Is its IC50 below 2000 nM? n

Here's an entry: COc1cccc2c(=O)c3c(OCc4ccccc4)cc(OCC4CO4)cc3oc12 (centres undefined) . Is its IC50 below 2000 nM? y

Here's an entry: COc1cccc2c(=O)c3c(OCCc4cccc(Cl)c4)cc(OCC4CO4)cc3oc12 (centres undefined) . Is its IC50 below 2000 nM? y

Here's an entry: O=c1c2ccccc2oc2cc(OCC3CO3)cc(OCc3ccccc3)c12 (centres undefined) . Is its IC50 below 2000 nM? y

Here's an entry: CCCCCOc1cc(OCC2CO2)cc2oc3c(OC)cccc3c(=O)c12 (centres undefined) . Is its IC50 below 2000 nM? y
